Overview of reported Res. Act. (%) across a group of binders:
Molecular target: T1, h-FXIIa (human, UniProt P00748 20-615)
T1 construct: also called factor XIIa
T1 sequence (looked up): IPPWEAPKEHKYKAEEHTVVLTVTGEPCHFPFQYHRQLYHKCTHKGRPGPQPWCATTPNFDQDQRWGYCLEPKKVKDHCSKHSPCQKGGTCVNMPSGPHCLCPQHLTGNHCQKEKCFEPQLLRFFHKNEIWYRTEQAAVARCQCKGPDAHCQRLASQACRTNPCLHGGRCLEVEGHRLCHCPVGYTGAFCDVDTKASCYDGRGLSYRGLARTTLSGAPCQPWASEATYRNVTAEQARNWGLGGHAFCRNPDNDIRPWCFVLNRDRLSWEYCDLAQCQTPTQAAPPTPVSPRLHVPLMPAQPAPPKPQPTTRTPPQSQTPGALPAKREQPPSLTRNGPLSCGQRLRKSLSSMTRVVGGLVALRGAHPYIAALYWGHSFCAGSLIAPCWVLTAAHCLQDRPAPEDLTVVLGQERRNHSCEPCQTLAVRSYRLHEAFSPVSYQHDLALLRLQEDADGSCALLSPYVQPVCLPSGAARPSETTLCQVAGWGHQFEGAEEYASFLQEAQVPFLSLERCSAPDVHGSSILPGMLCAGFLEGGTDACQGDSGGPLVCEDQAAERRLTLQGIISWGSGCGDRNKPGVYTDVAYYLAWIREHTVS
Assay: S2302 hydrolysis by h-FXIIa (5.01 nM); inhibitor 30 min 95° C., against -80° C.
Where no end group is shown, it is not given here.
Use % as the unit, but write only the number.

Enquiry: Report Res. Act. (%) for RVCPRILMECKKDSDCLAECVCLEHGYCG (disulfide (positions not given here), Synthetic, folded peptide) [TICA 2] please.
Return: 99

The reported numbers originate from patent US20140296146A1.
